- SYSTEM: human CB2 receptors (Homo sapiens, UniProt P34972)
- Construct: expressed in transfected cells; host or cells: HEK293
- Sequence (P34972 whole entry): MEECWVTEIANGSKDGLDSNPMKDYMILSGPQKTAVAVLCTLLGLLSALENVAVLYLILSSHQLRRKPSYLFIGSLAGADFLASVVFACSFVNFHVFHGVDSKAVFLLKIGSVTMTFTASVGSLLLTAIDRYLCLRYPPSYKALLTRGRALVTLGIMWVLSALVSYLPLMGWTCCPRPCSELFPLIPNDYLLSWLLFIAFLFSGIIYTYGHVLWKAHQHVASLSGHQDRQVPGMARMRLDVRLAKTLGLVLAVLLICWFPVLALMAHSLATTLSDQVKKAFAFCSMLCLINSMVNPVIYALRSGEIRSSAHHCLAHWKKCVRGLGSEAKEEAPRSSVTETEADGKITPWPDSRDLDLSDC
- ASSAY SUMMARY: human CB2 radioligand binding assay ([3H]CP 55,940 competition)
- APPLIED CONDITIONS: human CB2 (Ki, nM), HEK293 membranes, 0.5 nM [3H]CP 55,940

- COMPOUND: "CCCCN1CC(C)(C)S/C1=N\\C(=O)c1cc(C(F)(F)F)ccc1OCC(C)(C)O"
  Ki: "3.9 nM"
- COMPOUND: "CCCCn1/c(=N/C(=O)c2cc(C(F)(F)F)ccc2SCC(C)O)cc(C(C)(C)C)n1C (stereo not shown)"
  Ki: "44 nM"
- COMPOUND: "CCCCn1oc(C(C)(C)C)c/c1=N\\C(=O)c1cc(C(F)(F)F)ccc1OCC(C)(C)O"
  Ki: "1.7 nM"
- COMPOUND: "COCCCn1/c(=N/C(=O)c2cc(C(F)(F)F)ccc2OCC(C)(C)O)cc(C(C)(C)C)n1C"
  Ki: "91 nM"

---

- SYSTEM: human CB2 receptors (Homo sapiens, UniProt P34972)
- Construct: expressed in transfected cells; host or cells: HEK293
- ASSAY SUMMARY: human CB2 radioligand binding assay ([3H]CP 55,940 competition)
- APPLIED CONDITIONS: human CB2 (Ki, nM), HEK293 membranes, 0.5 nM [3H]CP 55,940
MEASUREMENT LABEL: Ki (nM)

- COMPOUND: "Cn1c(C(C)(C)C)c/c(=N\\C(=O)c2cc(C(F)(F)F)ccc2OCC(C)(C)O)n1C[C@H]1CCCO1"
  OBSERVED: 10
- COMPOUND: "CCCCn1ccc(C(C)(C)C)c/c1=N\\C(=O)c1cc(C(F)(F)F)ccc1OCC(C)(C)O"
  OBSERVED: 73
- COMPOUND: "CCCCn1nc(C(C)(C)C)s/c1=N\\C(=O)c1cc(C(F)(F)F)ccc1OCC1CCCCN1C (stereo not shown)"
  OBSERVED: 2.5
- COMPOUND: "CN1CCC[C@H]1COc1ccc(C(F)(F)F)cc1C(=O)/N=c1\\oc(C(C)(C)C)cn1CC1CCC1"
  OBSERVED: 42
- COMPOUND: "CCCCn1cc(C(C)(C)C)o/c1=N\\C(=O)c1cc(C(F)(F)F)ccc1OCC(C)(C)O"
  OBSERVED: 3.6
- COMPOUND: "Cn1c(C(C)(C)C)c/c(=N\\C(=O)c2cc(C(F)(F)F)ccc2OCCCS(C)(=O)=O)n1C[C@H]1CCCO1"
  OBSERVED: 92
- COMPOUND: "CN1CCC[C@H]1COc1ccc(C(F)(F)F)cc1C(=O)/N=c1\\oc(C(C)(C)C)cn1C[C@H]1CCCO1"
  OBSERVED: 88

---

- SYSTEM: rat CB2 (Rattus norvegicus)
- Sequence (Q9QZN9 whole entry): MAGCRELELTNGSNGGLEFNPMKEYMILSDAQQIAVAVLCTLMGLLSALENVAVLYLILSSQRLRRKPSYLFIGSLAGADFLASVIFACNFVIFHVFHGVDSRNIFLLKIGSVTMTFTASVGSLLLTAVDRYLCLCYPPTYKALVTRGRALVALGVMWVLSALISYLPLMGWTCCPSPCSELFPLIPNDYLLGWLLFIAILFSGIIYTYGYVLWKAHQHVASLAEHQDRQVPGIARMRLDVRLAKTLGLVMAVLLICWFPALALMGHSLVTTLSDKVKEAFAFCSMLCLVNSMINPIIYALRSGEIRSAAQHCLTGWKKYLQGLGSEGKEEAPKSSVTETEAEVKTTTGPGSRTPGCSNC
- ASSAY SUMMARY: rat CB2 radioligand binding assay ([3H]CP 55,940 competition)
- Set-up: expressed in transfected cells; host or cells: HEK293
- APPLIED CONDITIONS: rat CB2 (Ki, nM), HEK293 membranes, 0.5 nM [3H]CP 55,940
Overview of recorded log10(Ki) for various molecules
MEASUREMENT LABEL: log10(Ki) (log10 of the value in nM)

- MOLECULE: "CCCCn1nc(C(C)(C)C)s/c1=N\\C(=O)c1cc(C(F)(F)F)ccc1OCC(C)(C)O [Example 84]"
  MEASUREMENT LABEL: "log10(Ki)"
  OBSERVED: 0.18
- MOLECULE: "CCC(O)(CC)COc1ccc(C(F)(F)F)cc1C(=O)/N=c1\\cc(C(C)(C)C)n(C)n1C[C@H]1CCCO1 [Example 117]"
  MEASUREMENT LABEL: "log10(Ki)"
  OBSERVED: 1.84
- MOLECULE: "Cn1c(C(C)(C)C)c/c(=N\\C(=O)c2cc(C(F)(F)F)ccc2OC[C@H]2OCC[C@H]2F)n1C[C@H]1CCCO1 [Example 24]"
  MEASUREMENT LABEL: "log10(Ki)"
  OBSERVED: 1.30
- MOLECULE: "Cn1c(C(C)(C)C)c/c(=N\\C(=O)c2cc(C(F)(F)F)ccc2OC[C@@H]2CCN2)n1C[C@H]1CCCO1 [Example 2]"
  MEASUREMENT LABEL: "log10(Ki)"
  OBSERVED: 2.29
- MOLECULE: "CC(C)(C)c1cn(C[C@H]2CCCO2)/c(=N/C(=O)c2cc(C(F)(F)F)ccc2OCCN2CCCC2)o1 [Example 77]"
  MEASUREMENT LABEL: "log10(Ki)"
  OBSERVED: 1.86
- MOLECULE: "Cn1c(C(C)(C)C)c/c(=N\\C(=O)c2cc(C(F)(F)F)ccc2OCC2CN(S(C)(=O)=O)C2)n1C[C@H]1CCCO1 [Example 54]"
  MEASUREMENT LABEL: "log10(Ki)"
  OBSERVED: 1.85
- MOLECULE: "CCCCCn1/c(=N/C(=O)c2cc(C#N)ccc2OCC(C)(C)O)cc(C(C)(C)C)n1C [Example 115]"
  MEASUREMENT LABEL: "log10(Ki)"
  OBSERVED: 1.23
- MOLECULE: "CCCCn1oc(C(C)(C)C)c/c1=N\\C(=O)c1cc(C(F)(F)F)ccc1OCC(C)(C)O [Example 100]"
  MEASUREMENT LABEL: "log10(Ki)"
  OBSERVED: 0.11
- MOLECULE: "CN1CCC[C@H]1COc1ccc(C(F)(F)F)cc1C(=O)/N=c1\\ccc(C(C)(C)C)cn1C[C@H]1CCCO1 [Example 59]"
  MEASUREMENT LABEL: "log10(Ki)"
  OBSERVED: 1.84
- MOLECULE: "Cn1c(C(C)(C)C)c/c(=N\\C(=O)c2cc(C(F)(F)F)ccc2OCCCS(C)(=O)=O)n1C[C@H]1CCCO1 [Example 60]"
  MEASUREMENT LABEL: "log10(Ki)"
  OBSERVED: 1.62
- MOLECULE: "Cn1c(C(C)(C)C)c/c(=N\\C(=O)c2cc(C#N)ccc2OCC(C)(C)O)n1CC1CCC1 [Example 113]"
  MEASUREMENT LABEL: "log10(Ki)"
  OBSERVED: 1.45
- MOLECULE: "COCCCn1/c(=N/C(=O)c2cc(C(F)(F)F)ccc2OCC(C)(C)O)cc(C(C)(C)C)n1C [Example 122]"
  MEASUREMENT LABEL: "log10(Ki)"
  OBSERVED: 1.43
- MOLECULE: "Cn1c(C(C)(C)C)c/c(=N\\C(=O)c2cc(C(F)(F)F)ccc2OCCCS(C)(=O)=O)n1CC1CCC1 [Example 134]"
  MEASUREMENT LABEL: "log10(Ki)"
  OBSERVED: 1.60
- MOLECULE: "Cn1c(C(C)(C)C)c/c(=N\\C(=O)c2cc(Cl)ccc2OCC(C)(C)O)n1C[C@H]1CCCO1 [Example 89]"
  MEASUREMENT LABEL: "log10(Ki)"
  OBSERVED: 0.88
- MOLECULE: "Cn1c(C(C)(C)C)c/c(=N\\C(=O)c2cc(C(F)(F)F)ccc2OCCCCS(C)(=O)=O)n1C[C@H]1CCCO1 [Example 83]"
  MEASUREMENT LABEL: "log10(Ki)"
  OBSERVED: 2.48
